Entry source: ChEMBL document CHEMBL1201862

System: MOLT-4
Measurement notes: NCI tumour cell line growth inhibition, 48 h
Active and inactive are the calls of the source. Cut-off read from the data, not from the text of the source: active = GI50 up to about 1.1 µM and inactive = higher.
Observation type: GI50

Compound: COc1cc(C)cc2c1c(=O)c1ccccc1n2C
Observation type: GI50
Obs value: 31.3 µM (inactive)
--
Compound: SC1=NNC2(C(S)=N1)c1ccccc1-c1ccccc12
Observation type: GI50
Obs value: > 10 µM (inactive)
--
Compound: O=C(NC1CCC(=O)N1C(=O)OCc1ccccc1)OCc1ccccc1 (stereo unspecified)
Observation type: GI50
Obs value: > 100 µM (inactive)
--
Compound: COc1c(O)c(O)cc2c1-c1ccc(OC)c(=O)cc1C(NC(C)=O)CC2 (stereo unspecified)
Observation type: GI50
Obs value: 6.24 µM (inactive)
--
Compound: CN(C)Cc1c[nH]c2ncnc(O)c12
Observation type: GI50
Obs value: 7.8 µM (inactive)
--
Compound: CC(=O)NNc1nc(C)c(C(=O)NNC(=O)C(=O)Nc2c(C)cccc2C(C)C)s1
Observation type: GI50
Obs value: 44.4 µM (inactive)
--
Compound: COc1cc2c(cc1OC)C(O)[C@H](Br)C(C)(C)O2 (stereo partly specified)
Observation type: GI50
Obs value: > 100 µM (inactive)
--
Compound: COc1ccccc1NC(=O)C1=C(C)NC(C)=C(C(=O)Nc2ccccc2OC)C1c1ccc(N(C)C)cc1
Observation type: GI50
Obs value: 18.8 µM (inactive)
--
Compound: CCCCCCCCCCCCCCCCCCOCC(O)CO (stereo unspecified) [BATILOL]
Observation type: GI50
Obs value: 17.2 µM (inactive)
--
Compound: Oc1ccc(SCc2ccc(NCc3ccccc3)cc2)cc1
Observation type: GI50
Obs value: 11.4 µM (inactive)
--
Compound: C=C1c2nc3ccccc3n2C=C(c2ccc(C)cc2)N1c1ccccc1
Observation type: GI50
Obs value: 4.41 µM (inactive)

====

System: HCT-116
Measurement notes: NCI tumour cell line growth inhibition, 48 h
The source made the active and inactive calls. Rule as the data show it: active = GI50 up to about 1.1 µM and inactive = higher.
Possible outcomes: active, inactive

Molecule: Cc1c(C(=O)OCc2ccccc2)[n+]([O-])c2ccccc2[n+]1[O-]
Assigned class: inactive
--
Molecule: CC(NC(=O)OC(C)(C)C)C(=O)C(N)=O (stereo not given)
Assigned class: inactive
--
Molecule: COc1ccc(NC(=O)CSC(=O)c2ccccc2)c(SCCSSCCSc2cc(OC)ccc2NC(=O)CSC(=O)c2ccccc2)c1
Assigned class: inactive
--
Molecule: COc1cc2c(cc1OC)C(CC(=O)NN=C(C)C)NCC2 (stereo not given)
Assigned class: inactive
--
Molecule: C[N+](C)(N)Cc1nc(-c2ccc(Cl)cc2)no1
Assigned class: inactive
--
Molecule: N#Cc1c(O)c(/N=N/c2ccc(Cl)cc2)c(=O)n2c1[nH]c1ccccc12
Assigned class: inactive
--
Molecule: O=C(Cc1nc2ccc(C(=O)c3ccccc3)cc2nc1O)C(=O)Nc1ccc(Br)cc1
Assigned class: inactive
--
Molecule: C=CC(=O)N1C/C(=C\c2ccc(F)cc2)C(=O)/C(=C/c2ccc(F)cc2)C1
Assigned class: active
--
Molecule: CC(NC(=O)c1ccccc1)NC(=O)C(C)C(=O)Nc1ccccc1 (stereo not given)
Assigned class: inactive
--
Molecule: Cc1c(CCCl)c(=O)n2c([nH]c3ccccc32)c1C#N
Assigned class: active

====

Test system: HCT-116
Measurement notes: NCI tumour cell line growth inhibition, 48 h
The source made the active and inactive calls. Cut-off read from the data, not from the text of the source: active = GI50 up to about 1.1 µM and inactive = higher.
Below is a list of entries, each paired with its recorded GI50 value.
Observation type: GI50

Compound: COc1cc(C)cc2c1c(=O)c1ccccc1n2C
System under test: HCT-116
Obs value: 30 µM (inactive)

Compound: COc1cc2cc3c4c(cc(OC)c(OC)c4c2cc1OC)CCN3C(=O)OCCBr
System under test: HCT-116
Obs value: 50.9 µM (inactive)

Compound: COC1C(O)C(C)OC(OC2C(Oc3cccc4c(O)c5c(=O)oc6ccc(C)c7c(=O)oc(c34)c5c67)OC(C)C(O)C2O)C1O (stereo unspecified)
System under test: HCT-116
Obs value: 0.731 µM (active)

Compound: Cc1cc(C)c2c(c1)C/C(=C\c1ccccc1C(=O)O)C2=O
System under test: HCT-116
Obs value: 76.6 µM (inactive)

Compound: CCCCOCn1c(=O)[nH]c(=O)c2cc(Br)ccc21
System under test: HCT-116
Obs value: 38.5 µM (inactive)

Compound: CCC(=O)C1(c2ccccc2)CCN(C)CC1
System under test: HCT-116
Obs value: > 100 µM (inactive)
